Where do the numbers come from? From ChEMBL document CHEMBL1961873.

Readings of inhibition for the listed compounds
TARGET UNDER TEST: Tyrosine-protein kinase receptor UFO (Homo sapiens) (UniProt P30530)
Sequence (P30530 whole entry): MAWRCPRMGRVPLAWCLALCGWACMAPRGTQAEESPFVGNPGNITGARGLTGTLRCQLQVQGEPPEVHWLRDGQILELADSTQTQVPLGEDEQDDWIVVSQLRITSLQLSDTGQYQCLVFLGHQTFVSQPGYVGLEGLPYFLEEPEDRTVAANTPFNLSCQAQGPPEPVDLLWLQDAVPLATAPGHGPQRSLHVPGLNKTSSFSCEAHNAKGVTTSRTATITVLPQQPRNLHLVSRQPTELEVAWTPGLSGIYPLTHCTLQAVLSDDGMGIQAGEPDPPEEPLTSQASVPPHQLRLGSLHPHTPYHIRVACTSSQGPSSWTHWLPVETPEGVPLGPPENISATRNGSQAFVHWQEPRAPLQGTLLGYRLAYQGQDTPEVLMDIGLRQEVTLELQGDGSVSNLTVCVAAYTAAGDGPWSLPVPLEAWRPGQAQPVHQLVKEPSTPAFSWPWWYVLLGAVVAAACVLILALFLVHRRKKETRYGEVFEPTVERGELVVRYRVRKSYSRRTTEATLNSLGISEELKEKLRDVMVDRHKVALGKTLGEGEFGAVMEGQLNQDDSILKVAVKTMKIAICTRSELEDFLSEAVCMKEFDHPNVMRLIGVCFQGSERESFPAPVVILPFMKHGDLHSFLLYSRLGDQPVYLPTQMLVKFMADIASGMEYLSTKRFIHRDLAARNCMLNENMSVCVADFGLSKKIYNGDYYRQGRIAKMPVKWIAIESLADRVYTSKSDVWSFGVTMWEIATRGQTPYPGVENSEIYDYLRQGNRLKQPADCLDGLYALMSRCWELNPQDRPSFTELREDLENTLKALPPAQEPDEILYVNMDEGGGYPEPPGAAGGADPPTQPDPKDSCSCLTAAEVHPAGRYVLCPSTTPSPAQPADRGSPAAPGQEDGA
CONDITION SET: at 1 µM
Description: GSK_PKIS: AXL mean inhibition at 1 uM [Nanosyn]
The answer is to be given in %; state only the numeric part.

Asked: Entry under review: O=C(Nc1n[nH]c2nc(-c3ccco3)ccc12)C1CC1 . Reported inhibition?
Given back: 5.23

Asked: If you can, please state the reported inhibition value of Fc1ccc(-c2c(-c3ccncc3)nc3n2CCS3)cc1 .
Given back: -2.08

Asked: Reported inhibition, compound NS(=O)(=O)c1ccc(N/N=C2\C(=O)Nc3ccc(C(=O)NCCCn4ccnc4)cc32)cc1 : ____
Given back: 3.27
